tested on: MCF7; experiment: Antimitotic activity against human MCF7 cells expressing p53 mutant
# pIC50 listing for each entry below
Kindly note that pIC50 refers to -log10 of the concentration in mol/L and answer with the value alone.

1) CN[C@@H](C(=O)N[C@H](C(=O)N(C)[C@H](/C=C(\C)C(=O)O)C(C)C)C(C)(C)C)C(C)(C)c1ccccc1 ... 8.00

Please fill in: pIC50 reported for CN[C@H](C(=O)N[C@H](C(=O)N(C)[C@@H](/C=C(\C)C(=O)O)C(C)C)C(C)(C)C)C(C)(C)c1cn(C)c2ccccc12 = 8.00

Please fill in: pIC50 reported for CN[C@H](C(=O)N[C@H](C(=O)N(C)[C@H](/C=C(\C)C(=O)O)C(C)C)C(C)(C)C)C(C)(C)C = 8.22

---

test system: MCF7; experiment: Antimitotic activity against human MCF7 cells expressing p53 mutant
pIC50: −log10 of the molar value.
measurement label: pIC50

Please review the following examples before continuing.
1) CN[C@H](C(=O)N[C@H](C(=O)N(C)CCCC(=O)O)C(C)(C)C)C(C)(C)c1cn(C)c2ccccc12 ... < 6.00
2) CN[C@H](C(=O)N[C@H](C(=O)N[C@H](/C=C(\C)C(=O)O)C(C)C)C(C)(C)C)C(C)(C)C ... < 5.00
3) C/C(=C\[C@H](C(C)C)N(C)C(=O)[C@@H](NC(=O)C(C)(C)C)C(C)(C)C)C(=O)O ... < 5.00

Let us examine a further case.
Please fill in: pIC50 reported for CN[C@@H](Cc1cn(C)c2ccccc12)C(=O)N[C@H](C(=O)N(C)C/C=C(\C)C(=O)O)C(C)(C)C = < 5.00
